test summary: Toxicity in Artemia salina
Type: organism-based
protocol conditions: in vivo
readout name: LC50
Param answer (str): number followed by unit.

Assign LC50 to the following record: `CCCCCCCCCC[C@@H](O)[C@H]1CC[C@H]([C@H](O)CCCC[C@H](O)CCCCCCC[C@@H](O)CC2=C[C@H](C)OC2=O)O1`
0.11 µg/mL

Assign LC50 to the following record: `CCCCCCCCCC[C@H](O)[C@@H](O)CCCC[C@H]1CC[C@H]([C@H]2CC[C@H]([C@H](O)CCCCC[C@@H](O)CC3=C[C@H](C)OC3=O)O2)O1`
0.27 µg/mL
